Can you tell me Mouse for the items I'm about to list?
- TEST_NAME: Plasma stability assay
- Type: in vitro ADME, mouse
- MEASUREMENT_PARAMETERS: mouse, 10 μM
Numbered stars: 1 amine (or outer) side, 2 acyl side, 3 side chain; on linkers, the order of the positions; unused ones are H or OH. Bridge positions count the residues as written; N and C are the ends. Square brackets hold non-standard residues; d marks the D form. Peptide text beside a SMILES is read from it. * marks the point of attachment. Morpholine(3S-CO) = O=C(O)[C@@H]1COCCN1; Phe(3-Me) = Cc1cccc(C[C@H](N)C(=O)O)c1; NH(4-Cl-2-F-phenyl) = Fc1cc(Cl)ccc1N*; Pro(4R-Me) = C[C@H]1CN[C@H](C(=O)O)C1; X1 = O=C([C@@H]1CSCCN1[*:1])[*:2]; Hyp = O=C(O)[C@@H]1C[C@@H](O)CN1; aThr = C[C@H](O)[C@H](N)C(=O)O; X3 = c1cc2c(cc1N*)OCCO2; CO = O=C([*:1])[*:2]

// batch mode: one Mouse value per listed entry
1. Cc1cccc(C[C@H](NC(=O)Nc2ccc3c(c2)OCCO3)C(=O)N[C@@H]2C(=O)N3C[C@H](O)C[C@H]3C(=O)N3CCOC[C@H]3C(=O)N[C@@H](C)C(=O)N3C[C@H](C)C[C@H]3C(=O)O[C@H]2C)c1 [Compound 27] ({X3-CO}-[Phe(3-Me)][aThr][Hyp][Morpholine(3S-CO)]A[Pro(4R-Me)]; ester 2-C)
2. Cc1cccc(C[C@H](NC(=O)Nc2ccc(Cl)cc2F)C(=O)N[C@@H]2C(=O)N3C[C@H](O)C[C@H]3C(=O)N3CCSC[C@H]3C(=O)N[C@@H](C)C(=O)N3C[C@H](C)C[C@H]3C(=O)O[C@H]2C)c1 [Compound 41] ({NH(4-Cl-2-F-phenyl)-CO}-[Phe(3-Me)][aThr][Hyp][X1]A[Pro(4R-Me)]; ester 2-C)

Out:
[">50 h", ">50 h"]

###

- TEST_NAME: Solubility determination
- Format: physicochemical
Numbered stars: 1 amine (or outer) side, 2 acyl side, 3 side chain; on linkers, the order of the positions; unused ones are H or OH. Bridge positions count the residues as written; N and C are the ends. Square brackets hold non-standard residues; d marks the D form. Peptide text beside a SMILES is read from it. * marks the point of attachment. Piperazine(2S-CO,4-Me) = CN1CCN[C@H](C(=O)O)C1; Phe(3-Me) = Cc1cccc(C[C@H](N)C(=O)O)c1; X4 = O=C1CN([*:1])[C@H](C(=O)[*:2])CN1; NH(4-Cl-2-F-phenyl) = Fc1cc(Cl)ccc1N*; Pro(4R-Me) = C[C@H]1CN[C@H](C(=O)O)C1; NH(4-Et-phenyl) = CCc1ccc(N*)cc1; aThr = C[C@H](O)[C@H](N)C(=O)O; CO = O=C([*:1])[*:2]
Quick rule for you: μsol (μM) under 20 µM gets yes, anything else gets no.

Consider the following illustrative entries.
CCc1ccc(NC(=O)N[C@@H](Cc2cccc(C)c2)C(=O)N[C@H]2COC(=O)[C@@H]3C[C@@H](C)CN3C(=O)[C@H](C)NC(=O)[C@@H]3CN(C)CCN3C(=O)[C@@H]3CCCN3C2=O)cc1 [Compound 16] ({NH(4-Et-phenyl)-CO}-[Phe(3-Me)]SP[Piperazine(2S-CO,4-Me)]A[Pro(4R-Me)]; ester 2-C) | no
Cc1cccc(C[C@H](NC(=O)Nc2ccc(Cl)cc2F)C(=O)N[C@H]2COC(=O)[C@@H]3C[C@@H](C)CN3C(=O)[C@H](C)NC(=O)[C@@H]3CCCCN3C(=O)[C@@H]3C[C@H](N)CN3C2=O)c1 [Compound 12] | no
Cc1cccc(C[C@H](NC(=O)Nc2ccc(Cl)cc2F)C(=O)N[C@@H]2C(=O)N3CCC[C@H]3C(=O)N3CC(=O)NC[C@H]3C(=O)N[C@@H](C)C(=O)N3C[C@H](C)C[C@H]3C(=O)O[C@H]2C)c1 [Compound 20] ({NH(4-Cl-2-F-phenyl)-CO}-[Phe(3-Me)][aThr]P[X4]A[Pro(4R-Me)]; ester 2-C) | no
Cc1cccc(C[C@H](NC(=O)Nc2ccc3c(c2)OCO3)C(=O)N[C@H]2COC(=O)[C@@H]3C[C@@H](C)CN3C(=O)[C@H](C)NC(=O)[C@@H]3CCCCN3C(=O)[C@@H]3CCCN3C2=O)c1 [Compound 23] | yes

Next item in the queue.
In: Lab note: μsol (μM) threshold 20 µM. Does this compound come in strictly under it? Cc1cccc(C[C@H](NC(=O)Nc2ccc(Cl)cc2F)C(=O)N[C@H]2COC(=O)[C@@H]3C[C@@H](C)CN3C(=O)[C@H](C)NC(=O)[C@@H]3CCCCN3C(=O)[C@@H]3CCCN3C2=O)c1 [Compound 8]
Out: yes

The measured values listed here are drawn from patent US10570179B2.
